// data source = patent US10577360B2

# Measured Target: Human α2δ-1 subunit of Cav2.2 calcium channel (Homo sapiens (Human), UniProt P54289)
# Sequence (P54289 25-1103): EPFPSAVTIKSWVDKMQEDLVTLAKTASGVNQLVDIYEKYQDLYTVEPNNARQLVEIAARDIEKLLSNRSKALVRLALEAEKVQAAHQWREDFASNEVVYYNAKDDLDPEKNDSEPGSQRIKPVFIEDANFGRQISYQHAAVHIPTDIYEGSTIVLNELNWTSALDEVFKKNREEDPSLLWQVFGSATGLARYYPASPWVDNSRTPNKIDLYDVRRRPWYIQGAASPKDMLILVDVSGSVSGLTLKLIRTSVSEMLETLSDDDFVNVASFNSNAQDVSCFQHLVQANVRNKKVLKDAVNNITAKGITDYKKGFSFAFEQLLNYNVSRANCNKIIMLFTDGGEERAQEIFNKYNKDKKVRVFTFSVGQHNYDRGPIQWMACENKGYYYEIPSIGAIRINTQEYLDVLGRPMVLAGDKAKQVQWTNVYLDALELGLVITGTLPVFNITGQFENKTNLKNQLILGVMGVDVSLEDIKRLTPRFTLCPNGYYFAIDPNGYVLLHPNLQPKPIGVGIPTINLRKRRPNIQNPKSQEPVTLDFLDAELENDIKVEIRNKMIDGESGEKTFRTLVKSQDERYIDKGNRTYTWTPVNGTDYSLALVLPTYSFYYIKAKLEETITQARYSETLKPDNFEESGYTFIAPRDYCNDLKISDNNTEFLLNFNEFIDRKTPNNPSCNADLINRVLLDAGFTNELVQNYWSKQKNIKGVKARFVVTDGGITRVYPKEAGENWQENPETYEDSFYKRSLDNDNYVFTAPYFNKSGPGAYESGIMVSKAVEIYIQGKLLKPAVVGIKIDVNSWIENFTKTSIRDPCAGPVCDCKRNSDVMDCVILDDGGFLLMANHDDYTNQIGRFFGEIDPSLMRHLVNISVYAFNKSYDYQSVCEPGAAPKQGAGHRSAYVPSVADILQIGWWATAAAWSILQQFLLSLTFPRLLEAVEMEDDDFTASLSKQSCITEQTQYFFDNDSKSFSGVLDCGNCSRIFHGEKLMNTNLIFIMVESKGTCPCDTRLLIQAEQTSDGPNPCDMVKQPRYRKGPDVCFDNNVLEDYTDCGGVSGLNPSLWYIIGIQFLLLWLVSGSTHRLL
# Method Notes: Human α2δ-1 subunit of Cav2.2 calcium channel assay ([3H]-Gabapentin binding)
# Conditions Used: read-out: α2δ − 1 (Ki)
Reported Metric: Ki

# input Name the recorded Ki of the item CN1CCCC(N(C(=O)c2cccs2)c2ccn(-c3ccccc3)n2)C1 (stereo not shown) in your answer.
# output > 5 µM

---

So I've got a bunch of compounds here, and I need their Ki values.
# Measured Target: Human α2δ-1 subunit of Cav2.2 calcium channel (Homo sapiens (Human))
# Method Notes: Human α2δ-1 subunit of Cav2.2 calcium channel assay ([3H]-Gabapentin binding)

# input Name the recorded Ki of the item "O=C(c1cccs1)N(CCNCc1ccccc1)c1ccn(-c2ccccc2)n1" in your answer.
# output 500 to 5000 nM

# input Name the recorded Ki of the item "CCN(C)CCN(C(=O)c1cccs1)c1ccn(-c2ccccc2)n1" in your answer.
# output 500 to 5000 nM

# input Name the recorded Ki of the item "CN(CCCN(C(=O)c1cccs1)c1ccn(-c2ccccc2)n1)Cc1ccccc1" in your answer.
# output 500 to 5000 nM

# input Name the recorded Ki of the item "CNCCN(C(=O)c1cccs1)c1ccn(-c2ccccc2)n1" in your answer.
# output 500 to 5000 nM

# input Name the recorded Ki of the item CN1CCCC(N(C(=O)c2cccs2)c2ccn(-c3ccccc3)n2)CC1 (stereo not shown) in your answer.
# output 100 to 500 nM

# input Name the recorded Ki of the item "Cc1nnc(-c2cccc(-n3ccc(N(CCN(C)Cc4ccccc4)C(=O)c4cccs4)n3)c2)o1" in your answer.
# output 100 to 500 nM

# input Name the recorded Ki of the item "O=C(c1cccs1)N(CCCNCc1ccccc1)c1ccn(-c2ccccc2)n1" in your answer.
# output 500 to 5000 nM

# input Name the recorded Ki of the item "CCNCCN(C(=O)c1cccs1)c1ccn(-c2ccccc2)n1" in your answer.
# output 500 to 5000 nM

# input Name the recorded Ki of the item O=C(c1cccs1)N(c1ccn(-c2ccccc2)n1)C1CCCNC1 (stereo not shown) in your answer.
# output 500 to 5000 nM

# input Name the recorded Ki of the item "CN(CCN(C(=O)c1cccs1)c1ccn(-c2ccccc2)n1)Cc1ccccc1" in your answer.
# output 500 to 5000 nM
